experimentalProtocol: self-splicing fitness, log relative to wild type (ln ratio); higher = more splicing; Tetrahymena group I intron in knt gene, E. coli kanamycin selection, DiMSum; sequences stand for … in CUCUCU…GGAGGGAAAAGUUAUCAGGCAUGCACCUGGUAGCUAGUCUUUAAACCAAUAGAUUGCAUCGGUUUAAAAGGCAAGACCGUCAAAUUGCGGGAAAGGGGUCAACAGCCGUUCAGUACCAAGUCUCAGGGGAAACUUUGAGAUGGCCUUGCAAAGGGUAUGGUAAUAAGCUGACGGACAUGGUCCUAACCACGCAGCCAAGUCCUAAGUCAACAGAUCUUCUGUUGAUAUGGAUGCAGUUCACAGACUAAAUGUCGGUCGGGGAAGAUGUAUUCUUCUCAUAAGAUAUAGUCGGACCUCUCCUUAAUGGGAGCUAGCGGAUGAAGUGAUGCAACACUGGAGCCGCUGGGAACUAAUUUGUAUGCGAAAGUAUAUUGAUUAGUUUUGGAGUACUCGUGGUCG;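 further: selection with 25 µg/mL kanamycin versus none on LB agar overnight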
conditionSet: 37 °C
reportedMetric: self-splicing fitness (ln)

{"sequenceRecord": "GUCCAGCAAUAUUACGCCGU", "measuredValue": -0.122}
{"sequenceRecord": "CUUCAGCAAUAUUACGCACG", "measuredValue": -0.456}
{"sequenceRecord": "CUAAAGCAAUAUUACGUCGA", "measuredValue": -1.99}
{"sequenceRecord": "CGUCAGCAAUAUUACGUUCA", "measuredValue": -0.74}
{"sequenceRecord": "CUCAAGCAAUAUUACGUCCU", "measuredValue": -2.79}
{"sequenceRecord": "GGUCAGCAAUAUUACGGAAG", "measuredValue": -1.58}
{"sequenceRecord": "AAAAAGCAAUAUUACGUUAG", "measuredValue": -2.61}
{"sequenceRecord": "AUAAAGCAAUAUUACGUCUA", "measuredValue": 0.497}
{"sequenceRecord": "CAUCAGCAAUAUUACGAUGC", "measuredValue": -2.76}
{"sequenceRecord": "UACAAGCAAUAUUACGGCGC", "measuredValue": -0.801}
{"sequenceRecord": "GGUGAGCAAUAUUACGCUAG", "measuredValue": -1.65}
{"sequenceRecord": "UUAUAGCAAUAUUACGAUUA", "measuredValue": -0.272}
{"sequenceRecord": "AAUUAGCAAUAUUACGACUA", "measuredValue": 0.169}
{"sequenceRecord": "AGUCAGCAAUAUUACGCUCU", "measuredValue": -0.342}
{"sequenceRecord": "CGCCAGCAAUAUUACGAUGU", "measuredValue": -1.25}
{"sequenceRecord": "GUUAAGCAAUAUUACGUUCU", "measuredValue": -0.445}
{"sequenceRecord": "AAUCAGCAAUAUUACGGCAG", "measuredValue": -1.32}
{"sequenceRecord": "GCAAAGCAAUAUUACGAAAU", "measuredValue": -1.36}
{"sequenceRecord": "AAAGAGCAAUAUUACGCAUU", "measuredValue": -1.88}
{"sequenceRecord": "CAGAAGCAAUAUUACGCGAU", "measuredValue": -2.59}
{"sequenceRecord": "AUGCAGCAAUAUUACGCUCG", "measuredValue": -0.774}
{"sequenceRecord": "CAAUAGCAAUAUUACGACAG", "measuredValue": 0.138}
{"sequenceRecord": "ACAAAGCAAUAUUACGUUCU", "measuredValue": -0.567}
{"sequenceRecord": "CUCAAGCAAUAUUACGUUCC", "measuredValue": -2.32}
{"sequenceRecord": "AUCCAGCAAUAUUACGUCCG", "measuredValue": -1.04}
{"sequenceRecord": "AGAUAGCAAUAUUACGUCAG", "measuredValue": -1.01}
{"sequenceRecord": "UGUAAGCAAUAUUACGUUUG", "measuredValue": -0.871}
{"sequenceRecord": "CCAAAGCAAUAUUACGGAUG", "measuredValue": -1.48}
{"sequenceRecord": "GCACAGCAAUAUUACGUGUC", "measuredValue": -2.05}
{"sequenceRecord": "CCUGAGCAAUAUUACGAGAU", "measuredValue": -2.09}
{"sequenceRecord": "CGACAGCAAUAUUACGAGUG", "measuredValue": -0.592}
{"sequenceRecord": "UCUCAGCAAUAUUACGGAAG", "measuredValue": -2.93}
{"sequenceRecord": "CCUAAGCAAUAUUACGGAUA", "measuredValue": -4.12}
{"sequenceRecord": "CAUUAGCAAUAUUACGAGCG", "measuredValue": 0.256}
